Tested on: PCSK9 mRNA
method_notes: qRT-PCR of PCSK9 mRNA in primary hepatocytes
Assay type: cell-based, human
condition_context: donor 4178, 3 μM, relative to GUSB
Quick list: Primary Hepatocytes 4178 PCSK9 (fold change in mRNA expression) per entry.

Cc1nc(NC(=O)N2CCC[C@H]2C(N)=O)sc1-c1ccnc(C(C)(C)C(F)(F)F)c1 [BYL-719]	0.71
CC(C)Oc1ccc(-c2nn([C@@H](C)c3oc4ccc(F)cc4c(=O)c3-c3cccc(F)c3)c3ncnc(N)c23)cc1F	0.80

Now for a further molecule.
Qu. Output measured Primary Hepatocytes 4178 PCSK9 (fold change in mRNA expression) for this item: COc1cccc2cc(-c3nc([C@H]4CC[C@H](C(=O)O)CC4)n4ncnc(N)c34)[nH]c12
Ans. 0.69
